TGT: Sterol O-acyltransferase 1 (Homo sapiens, UniProt P35610)
Sequence (P35610 whole entry): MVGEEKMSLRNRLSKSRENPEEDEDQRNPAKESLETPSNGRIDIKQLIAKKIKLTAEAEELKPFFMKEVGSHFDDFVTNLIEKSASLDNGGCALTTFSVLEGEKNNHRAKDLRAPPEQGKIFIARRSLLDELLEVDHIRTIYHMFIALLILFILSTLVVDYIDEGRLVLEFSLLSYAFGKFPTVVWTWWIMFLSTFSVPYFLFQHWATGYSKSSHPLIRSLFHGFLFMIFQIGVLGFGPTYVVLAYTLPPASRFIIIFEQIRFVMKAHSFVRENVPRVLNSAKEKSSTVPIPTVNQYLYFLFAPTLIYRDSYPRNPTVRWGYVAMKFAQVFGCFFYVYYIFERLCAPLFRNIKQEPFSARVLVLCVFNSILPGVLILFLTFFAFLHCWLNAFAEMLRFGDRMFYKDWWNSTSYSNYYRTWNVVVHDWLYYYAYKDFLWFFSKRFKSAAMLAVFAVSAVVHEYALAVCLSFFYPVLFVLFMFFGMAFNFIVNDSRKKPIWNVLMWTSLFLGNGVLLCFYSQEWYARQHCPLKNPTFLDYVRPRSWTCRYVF
ASSAY_NAME: Inhibition of human ACAT1 expressed in Hi5 cells
Parameters: species or system BTI-TN-5B1-4
PROPERTY_NAME: IC50 (µM)
The response must be a number in µM with no trailing unit.

Ask: For the compound shown here, CC(C)=CC[C@@H](OC(=O)CC(C)C)C1=CC(=O)c2c(O)ccc(O)c2C1=O , give the reported IC50.
Result: 13.8

Origin of values: ChEMBL document CHEMBL1139051
